Test: Serum samples of patient analyzed for fenfluramine and norfenfluramine
Assay type: in vivo, human
Details: human, 0.8 mg/kg/day, SUB 001, Visit 3, Timepoint 99, SAE 10 Jan. 2019, fenfluramine oral solution via gastric feeding tube, read-out: Conc. in serum
observable: concentration at 22 days after start of dosing (ng/mL)

>>> value_reported("CCNC(C)Cc1cccc(C(F)(F)F)c1 (racemic)")
22.2
